These measurements were taken from patent US20240150396A1.

I'd be grateful if you could share measured log10(kcat) for these entries.
target system: UniProtKB P25779
Sequence (P25779 123-467 limits assumed): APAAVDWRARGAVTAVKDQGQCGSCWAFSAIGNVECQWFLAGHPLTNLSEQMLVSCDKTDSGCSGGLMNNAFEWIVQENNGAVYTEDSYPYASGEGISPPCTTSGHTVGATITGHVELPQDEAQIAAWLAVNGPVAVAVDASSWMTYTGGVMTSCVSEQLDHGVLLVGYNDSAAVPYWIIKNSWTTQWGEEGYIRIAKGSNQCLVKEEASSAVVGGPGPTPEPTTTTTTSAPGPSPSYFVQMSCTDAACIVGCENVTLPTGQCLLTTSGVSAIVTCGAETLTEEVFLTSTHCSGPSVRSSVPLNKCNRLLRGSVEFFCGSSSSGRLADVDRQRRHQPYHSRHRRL
assay details: Kinetic parameters of peptide substrates for cruzain
Type: biochemical
run parameters: pH 7.5, 25° C., 10% DMSO
Non-standard residues stand in square brackets, D forms with d. Residues, ends and D or L forms follow the SMILES beside them. *: point of attachment. hPhe = N[CH](CCc1ccccc1)C(=O)O; 4Pal = N[CH](Cc1ccncc1)C(=O)O; AMC = Cc1cc(=O)oc2cc(N*)ccc12; Cbz = O=C(OCc1ccccc1)*
Base-10 log of kcat, unit s⁻¹.

Cc1cc(=O)oc2cc(NC(=O)[C@H](CCc3ccccc3)NC(=O)[C@H](Cc3ccccc3)NC(=O)OCc3ccccc3)ccc12 [Compound S2, Cbz-Phe-hPhe-AMC] (Cbz-Phe-[hPhe]-{AMC})
0.30

# per-item lookup of log10(kcat); items listed below
1. Cc1cc(=O)oc2cc(NC(=O)[C@H](CCCN=C(N)N)NC(=O)[C@H](CC(C)C)NC(=O)OCc3ccccc3)ccc12
2. Cc1cc(=O)oc2cc(NC(=O)[C@H](Cc3ccccc3)NC(=O)[C@H](Cc3ccccc3)NC(=O)OCc3ccccc3)ccc12 [Compound S9, Cbz-Phe-Phe-AMC] (Cbz-Phe-Phe-{AMC})
3. Cc1cc(=O)oc2cc(NC(=O)C(CCc3ccccc3)NC(=O)C(CC(C)C)NC(=O)OCc3ccccc3)ccc12 (stereo not drawn) [Compound S3, Cbz-Leu-hPhe-AMC] (Cbz-Leu-[hPhe]-{AMC}; configuration not given here)
4. Cc1cc(=O)oc2cc(NC(=O)C(CCc3ccccc3)NC(=O)C(Cc3ccccc3)NC(=O)N3CCN(C)CC3)ccc12 (stereo not drawn) [Compound S7, NMePip-Phe-hPhe-AMC]

0.92
-0.59
0.48
0.60

# per-item lookup of log10(kcat); items listed below
1. Cc1cc(=O)oc2cc(NC(=O)[C@H](CCCN=C(N)N)NC(=O)[C@H](Cc3ccccc3)NC(=O)OCc3ccccc3)ccc12 [Compound S1, Cbz-Phe-Arg-AMC] (Cbz-Phe-Arg-{AMC})
2. Cc1cc(=O)oc2cc(NC(=O)[C@H](Cc3ccccc3)NC(=O)[C@H](Cc3ccccc3)NC(=O)N3CCN(C)CC3)ccc12 [Compound S11, NMePip-Phe-Phe-AMC]
3. Cc1cc(=O)oc2cc(NC(=O)C(Cc3ccncc3)NC(=O)C(Cc3ccccc3)NC(=O)OCc3ccccc3)ccc12 (stereo not drawn) [Compound S5, Cbz-Phe-(4-Pyr)Ala-AMC] (Cbz-Phe-[4Pal]-{AMC}; configuration not given here)

1. 0.98
2. 0.45
3. 0.88
